All figures here come from the supplement of paper PMC10567573.

B1: PBXIP1 (parent)
chain: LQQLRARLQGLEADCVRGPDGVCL

variants of: B1; assay: protein stability index of a GFP-peptide fusion (GPS, HEK-293T) (PSI 1-6); higher = more stable; conditions: c terminus: a fixed tail appended;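 also: lentivirally expressed fusions sorted by FACS into six bins by GFP to DsRed ratio, PSI derived from sequencing read proportions per bin multiplied by bin number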
assay-readout: protein stability index
# output: bare number, no unit

### Prompt What value of protein stability index has been recorded for this entry: `C23K`
### Response 2.03

### Prompt Entry to check: `L4C`
### Response 1.96

Others:
### Prompt What value of protein stability index has been recorded for this entry: `V22G`
### Response 1.78

### Prompt Entry to check: `V16T`
### Response 2.51
